All figures here come from patent US20250115597A1.

target: Ba/F3-FL-TYK2-P760L cells (Homo sapiens, UniProt P29597, P760L, cells depend on it); construct: BaF3-FL-T2P760L (nM); test: Anti-proliferative assay, Ba/F3-FL-TYK2-P760L cells (Cell-Titer Glo); assay type: cell-based; conditions: 72 h, read-out: BaF3-FL-T2P760L IC50
Sequence (P29597 whole entry P760L): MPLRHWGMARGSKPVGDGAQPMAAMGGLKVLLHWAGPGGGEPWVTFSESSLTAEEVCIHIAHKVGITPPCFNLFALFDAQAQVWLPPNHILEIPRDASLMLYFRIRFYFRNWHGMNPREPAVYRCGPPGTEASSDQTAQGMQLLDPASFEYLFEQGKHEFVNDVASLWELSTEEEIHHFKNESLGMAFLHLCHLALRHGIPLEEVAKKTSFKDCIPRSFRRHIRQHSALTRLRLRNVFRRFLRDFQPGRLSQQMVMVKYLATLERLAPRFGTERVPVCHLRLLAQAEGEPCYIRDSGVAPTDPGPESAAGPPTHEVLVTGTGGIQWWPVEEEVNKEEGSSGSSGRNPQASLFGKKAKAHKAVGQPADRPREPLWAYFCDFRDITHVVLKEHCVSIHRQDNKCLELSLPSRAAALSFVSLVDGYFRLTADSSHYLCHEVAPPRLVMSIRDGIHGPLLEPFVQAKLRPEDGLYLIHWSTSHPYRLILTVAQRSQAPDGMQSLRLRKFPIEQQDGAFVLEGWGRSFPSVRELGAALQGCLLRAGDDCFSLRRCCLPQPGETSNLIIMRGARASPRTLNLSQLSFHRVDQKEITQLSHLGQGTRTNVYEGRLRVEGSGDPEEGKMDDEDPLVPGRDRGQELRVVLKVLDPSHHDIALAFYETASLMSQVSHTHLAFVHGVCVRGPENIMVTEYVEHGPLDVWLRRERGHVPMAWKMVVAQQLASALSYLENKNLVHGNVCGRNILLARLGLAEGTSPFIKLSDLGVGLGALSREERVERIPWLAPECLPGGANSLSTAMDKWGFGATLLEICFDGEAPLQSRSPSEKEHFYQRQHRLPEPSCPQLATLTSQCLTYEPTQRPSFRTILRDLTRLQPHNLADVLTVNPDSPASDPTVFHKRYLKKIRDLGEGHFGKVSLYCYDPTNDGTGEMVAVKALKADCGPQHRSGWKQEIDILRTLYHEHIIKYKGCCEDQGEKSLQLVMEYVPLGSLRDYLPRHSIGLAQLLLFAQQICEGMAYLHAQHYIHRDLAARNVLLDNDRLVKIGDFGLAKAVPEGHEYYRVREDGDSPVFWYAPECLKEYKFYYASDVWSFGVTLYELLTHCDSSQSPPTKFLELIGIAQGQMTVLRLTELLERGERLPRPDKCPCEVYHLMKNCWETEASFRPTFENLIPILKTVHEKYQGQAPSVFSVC
GI50 for assorted compounds
Report the figure in µM without appending any unit label.

Name the recorded GI50 for [2H]C([2H])([2H])NC(=O)c1cnc(Nc2ccc(C#N)cc2)nc1Nc1cccc(-c2ncn(C)n2)c1OC .
0.065

###

half-life at 1 μM for assorted compounds
experiment: Microsomal metabolic stability assay; type: in vitro ADME; conditions: pH 7.4; rat liver microsomes, 0.5 mg/mL protein, 1 μM compound; read-out: Rat LM T½
Report the figure in min without appending any unit label.

{"columns": ["compound", "u", "half-life at 1 μM"],
 "data": [
  ["[2H]C([2H])([2H])NC(=O)c1cnc2cc1Nc1cc(cc(-c3ncn(C)n3)c1OC)COCc1nc(ccc1C)N2 [Example 70]", "min", 187],
  ["[2H]C([2H])([2H])NC(=O)c1cnc2cc1Nc1cc(cc(-c3ncn(C)n3)c1OC)COCc1nc(ccc1F)N2 [Example 66]", "min", 203],
  ["[2H]C([2H])([2H])NC(=O)c1cnc2nc1Nc1cc(cc(-c3ncn(C)n3)c1OC)COCc1cc(cc(F)c1F)N2 [Example 78]", "min", 64.7],
  ["[2H]C([2H])([2H])NC(=O)c1cnc(NC(=O)C2CC2)cc1Nc1cn(CCOC)c2ccn(CC)c(=O)c12 [Example 193]", "min", 25.8],
  ["[2H]C([2H])([2H])NC(=O)c1cnc(Nc2cccc(C#N)c2)nc1Nc1cccc(-c2ncn(C)n2)c1OC [Example 19]", "min", 79.5],
  ["CCn1ccc2c(c(Nc3cc(NC(=O)C4CC4)nnc3C(=O)NC)cn2C)c1=O [Example 23]", "min", 38.7],
  ["[2H]C([2H])([2H])NC(=O)c1cnc(Nc2ccc(F)cn2)cc1Nc1ncc2cnn(CC)c2c1OC [Example 263]", "min", 33.9],
  ["COC(=O)c1cnc(NC(=O)C2CC2)cc1Nc1ncn2ccn(CC(F)(F)F)c(=O)c12 [Example 47]", "min", 17.3],
  ["[2H]C([2H])([2H])NC(=O)c1cnc(Nc2ccc(C#N)cc2)nc1Nc1cccc(-c2ncn(C)n2)c1OC [Example 28]", "min", 96.8]
]}

Next item in the queue.
Name the recorded half-life at 1 μM for [2H]C([2H])([2H])NC(=O)c1cnc(Nc2ccn(C)n2)cc1Nc1ccc2cnn(CC)c2c1OC [Example 43] .
28.6

###

Target: TYK2-JH2 domain (Homo sapiens, UniProt P29597)
Construct: IC50 on JH2 domain activity (nM)
Sequence (P29597 589-875 limits assumed): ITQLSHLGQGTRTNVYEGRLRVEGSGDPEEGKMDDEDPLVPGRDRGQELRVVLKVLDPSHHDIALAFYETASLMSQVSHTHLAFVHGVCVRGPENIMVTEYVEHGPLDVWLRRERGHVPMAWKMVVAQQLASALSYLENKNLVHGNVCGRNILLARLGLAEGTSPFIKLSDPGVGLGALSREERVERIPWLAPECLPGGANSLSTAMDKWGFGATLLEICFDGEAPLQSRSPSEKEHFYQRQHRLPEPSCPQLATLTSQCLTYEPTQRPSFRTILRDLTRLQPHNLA
Assay: Binding activity test for JH2 domain of TYK2 (Tb-antibody/tracer FRET)
Details: ratio JAK1-JH2 IC50 / TYK2-JH2 IC50
Protocol: Binding Activity Test for […] Domain of JAK1 and TYK2 The compounds are prepared in DMSO for 200× top dose, then serial dilute it with 27-fold for 3 more points. Add 8 μL/well in echo source plate, echo will add 75 nL/well with 3-fold serial dilution for 11 points in assay plate. 75 nL DMSO for high control and low control. […] For low control, add 5 μL/well assay buffer. […] Read by envision in FRET mode. The Luminescence value was recorded by a multi-label reader Envision (PerkinElmer).
quantity_measured: JAK1/TYK2 selectivity
Reply with the value as a number alone.

The cases that follow already have their JAK1/TYK2 selectivity on record.
{"columns": ["compound", "JAK1/TYK2 selectivity"],
 "data": [
  ["[2H]C([2H])([2H])NC(=O)c1cnc(NC(=O)C2CC2)cc1Nc1ccn2ncc(C(C)C#N)c2c1OC (single isomer, unassigned) [Example 251A]", 94.03],
  ["[2H]C([2H])([2H])NC(=O)c1cnc(NC(=O)C2CC2)cc1Nc1ccc2cnn(CC(N)=O)c2c1OC", 12.7],
  ["[2H]C([2H])([2H])NC(=O)c1cnc(Nc2ccn(C)n2)cc1Nc1ccn2ncc(C)c2c1OC", 13.7],
  ["[2H]C([2H])([2H])NC(=O)c1cnc(NC(=O)C2CC2)cc1Nc1ccc2cnn(C(C)C#N)c2c1OC (single isomer, unassigned) [Example 249A]", 25.15],
  ["[2H]C([2H])([2H])NC(=O)c1cnc(NC(=O)CC)cc1Nc1ccc2cnn(CC)c2c1OC", 62.5],
  ["[2H]C([2H])([2H])NC(=O)c1cnc(Nc2cc(C)nc(C)n2)cc1Nc1cc(F)c2cnn(CC)c2c1OC", 62.6]
]}

Next item in the queue.
Name the recorded JAK1/TYK2 selectivity for [2H]C([2H])([2H])NC(=O)c1cnc(NC(=O)C2CC2)cc1Nc1ncc2ncn(CC)c2c1OC .
78.9
